# experiment_notes: Cytotoxicity against human GS4.1 cells assessed as induction of cell death
# Type: cell-based
Entries and their measured CC50 follow.

# smiles_repr, comparator, CC50 [µM]
records = [
    ("COc1ccc2c(OCC[C@@H]3NC(=O)N(C)CCCC/C=C\\[C@@H]4C[C@@]4(C(=O)NS(=O)(=O)C4(C#N)CC4)NC3=O)cc(-c3nc(C(C)C)cs3)nc2c1Cl", ">", 75),
    ("COc1ccc2c(OCC[C@@H]3NC(=O)N(C)CCCC/C=C\\[C@@H]4C[C@@]4(C(=O)NS(=O)(=O)C4(C)CC4)NC3=O)cc(-n3ccc(C(F)(F)F)n3)nc2c1C", "=", 45.8),
    ("COc1ccc2c(OCC[C@@H]3NC(=O)N(C)CCCC/C=C\\[C@@H]4C[C@@]4(C(=O)NS(=O)(=O)C4(C)CC4)NC3=O)cc(-c3nc(C(C)C)cs3)nc2c1", "=", 6.5),
]
